These data points were gathered from patent US8563714B2.

target: human ALX receptor (Homo sapiens, UniProt P25090); test: Intracellular calcium measurements (FLIPR), agonistic activity in HEK293-hALXR-Gα16 cells; details: Fluo-4 calcium FLIPR, normalized to WKYMVm 10 nM
Sequence (P25090 whole entry): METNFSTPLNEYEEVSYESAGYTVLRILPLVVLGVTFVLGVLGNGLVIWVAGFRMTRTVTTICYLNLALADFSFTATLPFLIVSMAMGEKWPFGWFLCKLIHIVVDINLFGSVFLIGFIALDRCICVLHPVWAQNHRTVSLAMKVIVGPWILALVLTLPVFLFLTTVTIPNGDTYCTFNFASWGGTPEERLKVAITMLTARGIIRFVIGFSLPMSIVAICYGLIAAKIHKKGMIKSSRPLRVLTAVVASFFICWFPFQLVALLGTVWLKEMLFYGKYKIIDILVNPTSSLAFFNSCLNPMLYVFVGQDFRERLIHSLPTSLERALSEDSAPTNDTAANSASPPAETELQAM
Catalogue of EC50 readings, one per entry.
// note: answer is a bare numeric in nM

| compound | EC50 (nM) |
| --- | --- |
| O=C(NC1CCNCC1)[C@H]1[C@H](C(=O)Nc2ccc(Br)cc2)[C@@H]2C=C[C@H]1C21CC1 (racemic) | 0.2 |

Alright, here's another compound for you.
CC(=O)c1csc(CNC(=O)[C@H]2[C@H](C(=O)NCCC(N)=O)[C@H]3C=C[C@@H]2C32CC2)n1 (racemic) yielded EC50 of 297

* * *

biological target: UniProtKB P25089; experiment: Intracellular calcium measurements (FLIPR), agonistic activity in HEK293-hFPRL2-Gα16 cells; conditions: Fluo-4 calcium FLIPR, normalized to GLY14-Humanin 100 nM
reportedProperty: pEC50
The meaning of pEC50 here: minus log10 of the concentration in molar units.

| molecule | pEC50 |
| --- | --- |
| NCCCCNC(=O)[C@H]1[C@H](C(=O)Nc2ccc(Br)cc2)[C@H]2C=C[C@@H]1C21CC1 (relative stereo) | 5.83 |
| O=C(NCCCCN1CCCC1)[C@H]1[C@H](C(=O)Nc2cnc(Br)cn2)[C@@H]2C=C[C@H]1C21CC1 (racemic) | 6.25 |
| CCCCNC(=O)[C@H]1[C@H](C(=O)NCCCCN2CCCC2)[C@H]2C=C[C@@H]1C21CC1 (racemic) | 5.93 |
| CC(C)(C)OC(=O)NCCCCNC(=O)[C@H]1[C@H](C(=O)Nc2ccc(Br)cc2)[C@@H]2C=C[C@H]1C21CC1 (racemic) | 5.80 |
| CCN(CC)CCCCNC(=O)[C@H]1[C@H](C(=O)NCc2nc(C(C)=O)cs2)[C@@H]2C=C[C@H]1C21CC1 (racemic) | 6.97 |

CCCN(CC1CC1)C(=O)[C@H]1[C@H](C(=O)Nc2ccc(Br)cc2)[C@@H]2C=C[C@H]1C21CC1 (racemic) yielded pEC50 of 5.53

COc1ccc(NC(=O)[C@H]2[C@H](C(=O)NCCC(N)=O)[C@H]3CC[C@@H]2C32CC2)cc1 yielded pEC50 of 5.63

O=C(NCCCCN1CCCC1)C1C(C(=O)NCc2ccc(Br)cc2)C2C=CC1C21CC1 (racemic) yielded pEC50 of 6.85

* * *

Catalogue of pEC50 readings, one per entry.
Target: UniProtKB P25089
Sequence (P25089 1-353): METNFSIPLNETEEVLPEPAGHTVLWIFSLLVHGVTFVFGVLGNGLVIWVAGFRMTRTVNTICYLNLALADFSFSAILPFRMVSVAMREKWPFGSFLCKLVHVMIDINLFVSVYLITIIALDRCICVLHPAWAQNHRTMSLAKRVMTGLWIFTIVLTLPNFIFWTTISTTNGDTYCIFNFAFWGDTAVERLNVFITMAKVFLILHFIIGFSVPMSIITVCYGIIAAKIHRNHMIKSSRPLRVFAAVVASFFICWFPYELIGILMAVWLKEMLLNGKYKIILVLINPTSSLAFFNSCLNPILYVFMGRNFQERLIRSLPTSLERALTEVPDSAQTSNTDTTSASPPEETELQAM
Test: Intracellular calcium measurements (FLIPR), agonistic activity in HEK293-hFPRL2-Gα16 cells
Details: Fluo-4 calcium FLIPR, normalized to GLY14-Humanin 100 nM
The meaning of pEC50 here: minus log10 of the concentration in molar units.

Completed entries (count: 2):
| compound | pEC50 |
| --- | --- |
| O=C(NCCCCN1CCCC1)[C@H]1[C@H](C(=O)Nc2nc3ccccc3s2)[C@@H]2C=C[C@H]1C21CC1 (racemic) | 6.49 |
| CC1CCC(C)N1CCCCNC(=O)[C@H]1[C@H](C(=O)Nc2ccc(Br)cc2)[C@@H]2C=C[C@H]1C21CC1 (some centres unmarked) | 6.83 |

Alright, here's another compound for you.
CNCCNC(=O)[C@H]1[C@H](C(=O)NCc2ccc(Br)cc2)[C@@H]2C=C[C@H]1C21CC1 (racemic) yielded pEC50 of 5.69
